# Tested on: MALME-3M melanoma
# Protocol Details: NCI-60 one-dose screen, 48 h
# Conditions: 10 µM
About 83,000 compounds went through this panel and 20% of them were active in at least one assay; those are over-represented in the sample as a whole. Calls of active or inactive are those of the source. How the source made its calls: active means growth percent below 10; inactive means the rest.
Just give me one of these, please: active, inactive

QUERY: # fetch the recorded call for CCCN(CCC)CCCNC(=O)c1cc2c(-c3ccc(OC)c(OC)c3)nn(C)c2s1 here
RESULT: inactive

QUERY: # fetch the recorded call for COc1cc(CSc2nc3ccc(C)cc3c(=O)n2Cc2ccccc2)cc(OC)c1OC here
RESULT: inactive

QUERY: # fetch the recorded call for Cn1c([N+](=O)[O-])cnc1/C=C1\Oc2ccc(Br)cc2C1=O here
RESULT: active

---

# Test system: SNB-75 CNS
# Protocol Details: NCI-60 one-dose screen, 48 h
# Conditions: 10 µM
The panel holds about 83,000 compounds, 20% with a hit somewhere; the sample as a whole holds those more often. Activity calls are given as the source filed them. How the source made its calls: active means growth percent below 10; inactive means the rest.
Just give me one of these, please: class 1 = active, class 0 = inactive

1) CCOc1ccc(-n2cc(-c3ccc(N(C)C)cc3)[n+]3c2CCCCC3)cc1: class 0

QUERY: # fetch the recorded call for N=C(N)c1ccc(-c2ccc(-c3ccccc3)s2)s1 here
RESULT: class 1

QUERY: # fetch the recorded call for CC(=O)OCC(COC(C)=O)(COC(C)=O)COC(C)=O here
RESULT: class 0

QUERY: # fetch the recorded call for CCSc1nc2c([nH]1)c(=O)n(C)c(=S)n2C here
RESULT: class 0

QUERY: # fetch the recorded call for C/C(=N\NC(N)=S)C(C)(C)O here
RESULT: class 0

QUERY: # fetch the recorded call for CCOC(=O)[C@@H]1[C@H](c2ccccc2)[C@H]([N+](=O)[O-])[C@H](c2cn(-c3ccccc3)nc2C)N1Cc1ccccc1 here
RESULT: class 0

QUERY: # fetch the recorded call for CC1(C)CC(OCCCC[P+](c2ccccc2)(c2ccccc2)c2ccccc2)CC(C)(C)N1O here
RESULT: class 1

QUERY: # fetch the recorded call for O=[N+]([O-])c1ccc(Br)o1 here
RESULT: class 0

QUERY: # fetch the recorded call for COc1cc(NS(C)(=O)=O)ccc1Nc1c2ccc(Cl)cc2nc2c(OC)cccc12 here
RESULT: class 1

QUERY: # fetch the recorded call for O=C(Cn1ccc(=O)[nH]c1=O)c1ccc([N+](=O)[O-])o1 here
RESULT: class 0

QUERY: # fetch the recorded call for N#CN1CC[C@H](C(=O)Nc2ncc(-c3ccccc3)s2)C1 here
RESULT: class 1

---

# System: HCT-116 colon
# Protocol Details: NCI-60 one-dose screen, 48 h
# Conditions: 10 µM
This is part of a sample that, as a whole, favours compounds with a hit. Of some 83,000 tested, about 20% had one in any assay. Activity calls are given as the source filed them. Rule for the calls: active = growth percent below 10; inactive = the rest.
Just give me one of these, please: active, inactive

# count of solved cases: 5
1) O=C(O)CNS(=O)(=O)c1ccc(OCCOc2ccc(S(=O)(=O)NCC(=O)O)cc2)cc1: inactive
2) COc1cc(Cl)cc(-c2nn(-c3cccc(NC(=O)Nc4cccc(C(F)(F)F)c4)c3)cc2-c2ccncc2)c1: active
3) Oc1ccccc1-c1nnc(Cn2c(Cc3cccc4ccccc34)nc3ccccc32)o1: inactive
4) CCCCCCCCCCCCCC[n+]1ccccc1: active
5) Nc1nc2c(nnn2C2CC(O)C(CO)O2)c(=O)[nH]1 (stereo not given): inactive

QUERY: # fetch the recorded call for CCOC(=O)c1c(Cl)c2c(n1Cc1cccc(OC)c1)-c1oncc1CC2 here
RESULT: inactive

QUERY: # fetch the recorded call for Cc1ccc(C(=O)O)c(N)c1C here
RESULT: inactive

QUERY: # fetch the recorded call for NC1CCC(Nc2nc(NCc3ccc(-c4cccs4)nc3)c3ncn(C4CCCC4)c3n2)CC1 (stereo not given) here
RESULT: active

QUERY: # fetch the recorded call for O=C(COc1ccc(Cl)cc1Cl)Oc1coc(CSc2nc3ccccc3s2)cc1=O here
RESULT: inactive

QUERY: # fetch the recorded call for CC(C)OCc1cc(CN2CCN(c3cccc(Cl)c3)CC2)c(O)c2ncccc12 here
RESULT: active
